The measured values listed here are drawn from patent US20240270821A1.

biological target: human glucagon receptor (human) (UniProt P47871); assay: cell-based or functional assay
Sequence (P47871 26-477): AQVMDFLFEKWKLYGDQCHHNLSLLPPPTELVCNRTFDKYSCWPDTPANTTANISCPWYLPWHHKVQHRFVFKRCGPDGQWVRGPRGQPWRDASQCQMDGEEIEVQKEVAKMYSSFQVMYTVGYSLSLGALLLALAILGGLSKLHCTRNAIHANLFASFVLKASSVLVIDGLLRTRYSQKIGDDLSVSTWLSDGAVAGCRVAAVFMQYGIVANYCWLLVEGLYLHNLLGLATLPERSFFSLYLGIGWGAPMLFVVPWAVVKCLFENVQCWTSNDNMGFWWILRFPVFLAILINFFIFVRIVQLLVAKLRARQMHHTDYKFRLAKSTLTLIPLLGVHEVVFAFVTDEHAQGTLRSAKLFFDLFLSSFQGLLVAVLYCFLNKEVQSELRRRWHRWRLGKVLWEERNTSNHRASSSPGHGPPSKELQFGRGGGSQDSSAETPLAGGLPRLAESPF
Non-standard residues stand in square brackets, D forms with d. No end group written: not given here. αMePhe(2-F) = C[C@](N)(Cc1ccccc1F)C(=O)O; αMeL = CC(C)C[C@](C)(N)C(=O)O; Aib = CC(C)(N)C(=O)O
// class assignment uses cAMP Rel EC50, nM (1% HSA) with these ranges: low bracket (below 300 nM), middle bracket (300 nM to below 700 nM), high bracket (700 nM or more)

Completed entries (count: 10):
Please indicate the class for YXQGTFTSDFSQXLDKKAQXAFIEYLIEGGESSGAPPPSGS (synthetic construct; SITE 2: note = 2-Aminoisobutyric Acid; SITE 13: note = alpha-methyl-leucine; SITE 17: note = Lysine is chemically modified through conjugation of the epsilon-amino group of the Lysine side chain with (2-[2-(2-Amino-ethoxy)-ethoxy]-acetyl)-(gamma-Glu)-CO-(CH2) 16-CO2H; SITE 20: n) [Example 795] based on its cAMP Rel EC50, nM (1% HSA).
middle bracket

Input YXQGTFTSDFSXXLDKKAQXAFIEWLLEGGSSSGAPPPSGS (synthetic construct; SITE 2: note = 2-Aminoisobutyric Acid; SITE 12: note = L-ornithine; SITE 13: note = alpha-methyl-leucine; SITE 17: note = Lysine is chemically modified through conjugation of the epsilon-amino group of the Lysine side chain with (2-[2-(2-Amino-ethoxy)-ethoxy]-acetyl)-(gamma-Glu)) [Example 173] ; output its category
high bracket

Entry Y[Aib]QGT[αMePhe(2-F)]TSDYSKILDKIAQKAFIEYLIEGGPSSGAPPPSEG-NH2 (not fully specified (residue 20)) [Example 355] belongs to which category?
high bracket

// return the class label for Y[Aib]QGTFTSDYSI[αMeL]LDKQAAKQFIEYLIA[Aib]GPSSGEPPPSEG-NH2 (not fully specified (residue 20)) [Example 349]
high bracket

Each binder maps to one class by cAMP Rel EC50, nM (1% HSA). Which class for YXQGTFTSDFSXXLDKKAQXAFIEYLLEXGXSSGAPPPSGS (synthetic construct; SITE 2: note = 2-Aminoisobutyric Acid; SITE 12: note = L-ornithine; SITE 13: note = alpha-methyl-leucine; SITE 17: note = Lysine is chemically modified through conjugation of the epsilon-amino group of the Lysine side chain with (2-[2-(2-Amino-ethoxy)-ethoxy]-acetyl)2-(gamma-Glu)) [Example 183] ?
middle bracket

Could you place YXQGTFTSDXSXXLDKKAQXAFIEYLIAGGPSSGAPPPSGSE (non-natural residues; lysine acylated with C18 diacid; C-terminal amide; synthetic construct; SITE 2: note = 2-Aminoisobutyric Acid; SITE 10: note = 3-(4-Pyridyl)-L-alanine; SITE 12: note = L-ornithine; SITE 13: note = alpha-methyl-leucine; SITE 17: note = Lysine is chemically modified through conjugation of the epsilon-amino group of the Lysine side chain with (gamma-Gl)) [Example 1009] in its proper category? Many thanks.
low bracket

Which of the defined bands does the recorded cAMP Rel EC50, nM (1% HSA) of YXQGTFTSDXSXXLDKKAQXAFIEXLIEGGPSSGAPPPSGSEE (Aib, 4Pal, Orn, Me4Pal, αMeY; acylated lysine; amide; synthetic construct; SITE 2: note = 2-Aminoisobutyric Acid; SITE 10: note = 3-(4-Pyridyl)-L-alanine; SITE 12: note = L-ornithine; SITE 13: note = alpha-methyl-leucine; SITE 17: note = Lysine is chemically modified through conjugation of the epsilon-amino group of the Lysine side chain with (gamma-Gl)) [Example 967] sit within?
middle bracket

State the class of the binder shown: YXQGTFTSDXSQXLDXKAQXAFIEYLIEAGPSSGAPPPSGS (not fully specified; Aib, 4Pal, αMeL, Orn, Me4Pal, D-Ala; acylated Lys; C-terminal amide; synthetic construct; SITE 2: note = 2-Aminoisobutyric Acid; SITE 10: note = 3-(4-Pyridyl)-L-alanine; SITE 13: note = alpha-methyl-leucine; SITE 16: note = L-ornithine; SITE 17: note = Lysine is chemically modified through conjugation of the epsilon-amino group of the Lysine side chain with (2-[2-(2-) [Example 1016]
middle bracket

Determine which band this binder sits in: Y[Aib]QGT[αMePhe(2-F)]TSDYSILLDAQAAKEFIEYLIEGGPSSGEPPPSEG-NH2 (not fully specified (residue 20)) [Example 351]
high bracket

Please let me know in which category the item YXQGTFTSDFSXXLDKKAQXAFIEYLLEXGXSSGAPPPSGT (synthetic construct; SITE 2: note = 2-Aminoisobutyric Acid; SITE 12: note = L-ornithine; SITE 13: note = alpha-methyl-leucine; SITE 17: note = Lysine is chemically modified through conjugation of the epsilon-amino group of the Lysine side chain with (2-[2-(2-Amino-ethoxy)-ethoxy]-acetyl)2-(gamma-Glu)) [Example 184] belongs.
high bracket

Continuing:
State the class of the binder shown: YXQGTFTSDXSQXLDKKAQXAFIEYLIEAGPSSGAPPPSGSE (Aib, 4Pal, αMeL, Me4Pal, D-Ala; acylated lysine; amide; synthetic construct; SITE 2: note = 2-Aminoisobutyric Acid; SITE 10: note = 3-(4-Pyridyl)-L-alanine; SITE 13: note = alpha-methyl-leucine; SITE 17: note = Lysine is chemically modified through conjugation of the epsilon-amino group of the Lysine side chain with (gamma-Glu)2-CO-(CH2)16-CO2H; SITE 20:) [Example 1025]
middle bracket

Returns: class label. Input: YXQGTFTSDFSXXLDKKAQXAFIEWLLEGGSSSGAPPPSGE (synthetic construct; SITE 2: note = 2-Aminoisobutyric Acid; SITE 12: note = L-ornithine; SITE 13: note = alpha-methyl-leucine; SITE 17: note = Lysine is chemically modified through conjugation of the epsilon-amino group of the Lysine side chain with (2-[2-(2-Amino-ethoxy)-ethoxy]-acetyl)-(gamma-Glu)) [Example 172]
middle bracket

Which bin, given its cAMP Rel EC50, nM (1% HSA), does YXQGTXTSDXXIXLDXKAQXXFIEXLIEGGPSSGAPEPSEG (synthetic construct; SITE 2: note = 2-Aminoisobutyric Acid; SITE 6: note = alpha-methyl-2-fluoro-L-phenylalanine; SITE 10: note = 3-(4-Pyridyl)-L-alanine; SITE 11: note = alpha-methyl-L-serine; SITE 13: note = alpha-methyl-leucine; SITE 16: note = L-ornithine; SITE 17: note = Lysine is chemically mo) [Example 429] occupy?
low bracket

Kindly identify the class of YXQGTXTSDXSIXLDKKAQXAFIEYLEEGGPSSGEPPPS (synthetic construct; SITE 2: note = 2-Aminoisobutyric Acid; SITE 6: note = alpha-methyl-2-fluoro-L-phenylalanine; SITE 10: note = 3-(4-Pyridyl)-L-alanine; SITE 13: note = alpha-methyl-leucine; SITE 17: note = Lysine is chemically modified through conjugation of the epsilon-amino group of the Lysine) [Example 442] .
middle bracket

Bin? YXQGTFTSDXSXXLDKKAQXAFIEXLIEXGPSSGEPPPSGSE (Aib, 4Pal, Me4Pal, Orn, alpha-methyl-Leu, lipidated Lys, amide; synthetic construct; SITE 2: note = 2-Aminoisobutyric Acid; SITE 10: note = 3-(4-Pyridyl)-L-alanine; SITE 12: note = L-ornithine; SITE 13: note = alpha-methyl-leucine; SITE 17: note = Lysine is chemically modified through conjugation of the epsilon-amino group of the Lysine side chain with (gamma-Gl)) [Example 990]
low bracket

Into which category would you place YXQGTFTSDXSXXLDXKAQXAFIEXLIEGGPSSGAPPPSGS (Aib, 4Pal, Orn, αMeL, Me4Pal, αMeY, (γGlu)2-C18 diacid, amide; synthetic construct; SITE 2: note = 2-Aminoisobutyric Acid; SITE 10: note = 3-(4-Pyridyl)-L-alanine; SITE 12: note = L-ornithine; SITE 13: note = alpha-methyl-leucine; SITE 16: note = L-ornithine; SITE 17: note = Lysine is chemically modified through conjugation of the epsilon-amino group of the Lys) [Example 1013] ?
low bracket

Using the reported cAMP Rel EC50, nM (1% HSA), which band applies to YXQGTFTSDYSQXLDKKAQXAFIEYLLEGGESSGAPPPSGS (synthetic construct; SITE 2: note = 2-Aminoisobutyric Acid; SITE 13: note = alpha-methyl-leucine; SITE 17: note = Lysine is chemically modified through conjugation of the epsilon-amino group of the Lysine side chain with (2-[2-(2-Amino-ethoxy)-ethoxy]-acetyl)-(gamma-Glu)-CO-(CH2) 16-CO2H; SITE 20: n) [Example 362] ?
high bracket
